System: EKVX NSCLC
Assay: NCI-60 one-dose screen, 48 h (100 = growth as untreated, 0 = no growth, -100 = all killed)
Settings: 10 µM unless noted
Method: Growth inhibition of the EKVX human Non-Small Cell Lung tumor cell line is measured as a screen for anti-cancer activity. Cells are grown in 96 well plates and exposed to the test compound for 48 hours. Compounds are tested at a single concentration, which is 10^-5 M for most compounds. The reported endpoint is percent growth (GI% or GIPRCNT), where numbers from 0 - 100% represent growth inhibition, and numbers from -100% - 0 represent cell death. […]
Compounds without any hit were thinned out: in the full panel of roughly 83,000, 20% have a hit.
Classify: 1.0 when growth is strictly less than 50%; 0.0 when growth is not.

Cn1cc(-c2nn3cc(-c4cccnc4)nc3s2)c2cc(F)ccc21
0.0
O=C(Nc1ccc(F)cc1)c1cc(-c2ccc(F)cc2F)ccc1O
1.0
COc1ccc(-c2ccnc3c(C#N)c(Nc4ccccc4)nn23)cc1OC
0.0
CCc1ccc(NC(=O)N[C@@H](Cc2cccc(F)c2)C(=O)N[C@@H]2C(=O)N3CCC[C@H]3C(=O)N3CCCC[C@H]3C(=O)N[C@@H](C)C(=O)N3C[C@H](C)C[C@H]3C(=O)O[C@H]2C)c(F)c1
1.0
N#C/C(=C\c1ccc(-c2ccc(F)cc2)o1)C(=O)Nc1ncc(Cc2ccc(Cl)cc2Cl)s1
1.0
Oc1ccc(CSc2nnc(-c3ccc(Oc4ccccc4)cc3)o2)c2cccnc12
1.0
CCC(CC)N1C(=O)/C(=c2\sc3n(c2=O)C2C(NN=3)N(CC)C(=O)N2CC)c2ccccc21 (stereo not drawn)
1.0
Nc1n[nH]c2cccc(C#Cc3cccc(NC(=O)c4cccc(OC(F)(F)F)c4)c3)c12
0.0
Oc1ccccc1-c1nnc(SCc2ccc(O)c3ncccc23)o1
0.0
O=C1[C@H]2Cc3c([nH]c4ccccc34)[C@@H](c3ccc(Cl)cc3)N2C(=O)CN1C1CCN(Cc2c(Cl)cccc2Cl)CC1
0.0
Oc1ccc(CSc2nnc(-c3ccc(Br)cc3)o2)c2cccnc12
0.0
CSc1ccc(/C(=N/N=C(N)N)c2ccccc2)cc1
1.0
CS(=O)(=O)c1ccc2c(c1)c1c(n2S(=O)(=O)c2ccc(Cl)cc2)CCCC1
1.0
COc1ccc(-c2nnc(/N=C3/C(=O)Nc4ccc(Br)cc43)o2)cc1
0.0
O=c1[nH]c(CCl)nc2c1cnn2-c1ccccc1
0.0
CN(C)c1ccc(/C=N/Nc2nc(N/N=C/c3ccc(N(C)C)cc3)nc(N3CCOCC3)n2)cc1
0.0
O=C(/C=C/c1cccc(O)c1)c1ccc(O)cc1
0.0
COc1cc(CNC(=O)Cc2ccccc2[N+](=O)[O-])ccc1OCC(=O)NO
0.0
CCN1CCN(c2cc(C(=O)Nc3nc4ccc(Oc5ccnc(C(=O)NC)c5)cc4s3)cc(C(F)(F)F)c2)CC1
0.0
O=C(Cn1cc(CN2C(=O)c3ccc([N+](=O)[O-])cc3C2=O)nn1)Nc1ccc(F)cc1Cl
0.0
C#C[C@]1(O)CC[C@H]2[C@@H]3CC=C4c5sc(Nc6cccc(C)n6)nc5CC[C@]4(C)[C@H]3CC[C@@]21C
1.0
COc1ccc(N2C(=O)c3cc(OC)c(OC)cc3NC2SCc2ccccc2)cc1 (stereo not drawn)
0.0
CCCCCc1ccc(S(=O)(=O)N(C(C)=O)c2cccc(-c3csc(N(CCN4CCN(C)CC4)C(C)=O)n3)c2)cc1
0.0
